inhibition at 0.1 µM values by entry
- tested system: PD brain-derived alpha-synuclein aggregates (Homo sapiens, UniProt P37840)
- Construct: from tissue; host or cells: human PD donor brain tissue, sarkosyl-insoluble fraction
- assay summary: Micro-radiobinding competition assay for the determination of binding affinity
- measurement parameters: 100 nM non-radiolabelled example compound, competition over tritiated reference alpha-synuclein ligand (6 nM, 20 nM or 30 nM)
Where a name gives a salt, the structure may show the parent alone.
Enter your answer as a number in %; do not include the unit.

A selection of reference data follows.
>  <compound>
Cn1cc(N2Cc3cn(-c4ccc(N5CCCC(F)CC5)nc4)nc3C2=O)cn1 (stereo not shown) [Example 14, hydrochloride]

>  <tested system>
PD brain-derived alpha-synuclein aggregates (Homo sapiens, UniProt P37840)

>  <measurement label>
inhibition at 0.1 µM

>  <units label>
%

>  <numeric value>
0

$$$$
>  <compound>
O=C1c2nn(-c3ccc(N4CC[C@@H](F)C4)nc3)cc2CN1c1cncs1 [Example 12]

>  <tested system>
PD brain-derived alpha-synuclein aggregates (Homo sapiens, UniProt P37840)

>  <measurement label>
inhibition at 0.1 µM

>  <units label>
%

>  <numeric value>
64

$$$$
>  <compound>
Cc1ccc(N2Cc3cn(-c4ccc(N5CC[C@H](F)C5)nc4)nc3C2=O)cn1 [Example 9]

>  <tested system>
PD brain-derived alpha-synuclein aggregates (Homo sapiens, UniProt P37840)

>  <measurement label>
inhibition at 0.1 µM

>  <units label>
%

>  <numeric value>
37

$$$$

Turning now to a further compound:
// compound O=C1c2nn(-c3ccc(OCCF)nc3)cc2CN1c1cccnc1 [Example 17] , assay PD brain-derived alpha-synuclein aggregates (Homo sapiens, UniProt P37840), inhibition at 0.1 µM value: 31

---

- tested system: PD brain-derived alpha-synuclein aggregates (Homo sapiens, UniProt P37840)
- Construct: from tissue; host or cells: human PD donor brain tissue, sarkosyl-insoluble fraction
- assay summary: Micro-radiobinding competition assay for the determination of binding affinity
- measurement parameters: 100 nM non-radiolabelled example compound, competition over tritiated reference alpha-synuclein ligand (6 nM, 20 nM or 30 nM)
measurement label: inhibition at 0.1 µM (%)
Write down the numeric answer in % and omit the unit.

>  <molecule smiles>
O=C1c2nn(-c3ccc(N4CC[C@@H](F)C4)nc3)nc2CN1c1cccnc1

>  <inhibition at 0.1 µM (%)>
74

$$$$

Lookup result for Cc1ncc(N2Cc3cn(-c4ccc(N5CC[C@H](F)C5)nc4)nc3C2=O)s1 ; measured inhibition at 0.1 µM: 69

Reported inhibition at 0.1 µM for Cn1cc(N2Cc3cn(-c4ccc(OCCF)nc4)nc3C2=O)cn1 was 54

---

Measured inhibition at 1 µM values are reported for all entries that follow.
- tested system: PD brain-derived alpha-synuclein aggregates (Homo sapiens, UniProt P37840)
- Construct: from tissue; host or cells: human PD donor brain tissue, sarkosyl-insoluble fraction
- assay summary: Micro-radiobinding competition assay for the determination of binding affinity
- measurement parameters: 1 μM non-radiolabelled example compound, competition over tritiated reference alpha-synuclein ligand (6 nM, 20 nM or 30 nM)
Express it in %; write the number only.

Some molecules with known inhibition at 1 µM results, for comparison:
>  <molecule>
Cn1cc(N2Cc3cn(-c4ccc(OCCF)nc4)nc3C2=O)cn1 [Example 18]

>  <tested system>
PD brain-derived alpha-synuclein aggregates (Homo sapiens, UniProt P37840)

>  <numeric value>
81

$$$$
>  <molecule>
Cn1cc(N2Cc3cn(-c4ccc(N5CC[C@@H](F)C5)nc4)nc3C2=O)cn1 [Example 5]

>  <tested system>
PD brain-derived alpha-synuclein aggregates (Homo sapiens, UniProt P37840)

>  <numeric value>
101

$$$$
>  <molecule>
O=C1c2nn(-c3ccc(OCCF)nc3)cc2CN1c1cccnc1 [Example 17]

>  <tested system>
PD brain-derived alpha-synuclein aggregates (Homo sapiens, UniProt P37840)

>  <numeric value>
63

$$$$
>  <molecule>
Cn1cc(N2Cc3cn(-c4ccc(N5CC[C@H](F)C5)nc4)nc3C2=O)cn1 [Example 4]

>  <tested system>
PD brain-derived alpha-synuclein aggregates (Homo sapiens, UniProt P37840)

>  <numeric value>
75

$$$$
>  <molecule>
Cc1ccc(N2Cc3cn(-c4ccc(N5CC[C@@H](F)C5)nc4)nc3C2=O)cn1 [Example 8]

>  <tested system>
PD brain-derived alpha-synuclein aggregates (Homo sapiens, UniProt P37840)

>  <numeric value>
71

$$$$
>  <molecule>
O=C1c2nn(-c3ccc(N4CC[C@H](F)C4)nc3)cc2CN1c1cccnc1 [Example 2]

>  <tested system>
PD brain-derived alpha-synuclein aggregates (Homo sapiens, UniProt P37840)

>  <numeric value>
80

$$$$

# ---- query molecule ----
Form: molecule = O=C1c2nn(-c3ccc(OCCF)nc3)cc2CN1c1cncs1 [Example 19] ; inhibition at 1 µM = 78

Origin of the recorded values: patent US20250034149A1
